- Measurement target: T1, CFA/I (adhesin CfaE) on ETEC strain H10407 (enterotoxigenic Escherichia coli strain …, UniProt P25734 1-360)
- T1 sequence (looked up): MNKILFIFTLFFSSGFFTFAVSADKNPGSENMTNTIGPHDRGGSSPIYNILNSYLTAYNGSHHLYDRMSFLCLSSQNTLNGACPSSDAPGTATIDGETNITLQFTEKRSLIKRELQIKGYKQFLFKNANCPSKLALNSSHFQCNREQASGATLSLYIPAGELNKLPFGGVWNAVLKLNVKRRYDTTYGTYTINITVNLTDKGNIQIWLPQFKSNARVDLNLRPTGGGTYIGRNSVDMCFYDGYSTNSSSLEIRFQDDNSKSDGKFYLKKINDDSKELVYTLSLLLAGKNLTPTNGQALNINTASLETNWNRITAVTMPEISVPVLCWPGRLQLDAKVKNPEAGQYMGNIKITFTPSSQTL
- Assay overview: cell-based or functional assay
Property: MRHA IC100 (µg/mL)
Form entry: value (µg/mL) — number only.

In the examples that follow, each entry is paired with its recorded MRHA IC100.
Entry under test: VHH antibody 1H4 (monomeric nanobody) (VHH) VHH: EVQLVESGGGLVQAGGSLRLSCAASSRTFNHYNIGWFRQAPGKEREFAAAITWNGRSTLYADSVKGRFTISRDNAKNTVYLQMNSLKPEDTAVYYCATLTTWEHKWEYNSQGQGTQVTVSS . Its MRHA IC100 was 200

Entry under test: VHH antibody 2R215 (monomeric nanobody) (VHH, Yeast-library clone, expressed in the E. coli periplasm and purified by Ni-NTA; also called monomeric 2R215; monomeric VHH 2R215) VHH: QVQLQESGGGLVQAGGSLRLSCAASGNIFQDAEMGWYRQAPGKEREFVATIAYGGNTNYADSVKGRFTISRDNAKNTVYLQMNSLKPEDTAVYYCAVYTGVYYDRTTGGYVAFEYWGQGTQVTVSS . Its MRHA IC100 was 25

Entry under test: VHH antibody 2R23 (monomeric nanobody) (VHH, Yeast-library clone, expressed in the E. coli periplasm) VHH: QVQLQESGGGLVQAGGSLRLSCAASGYIFWSYGYMGWYRQAPGKERELVATISRGGTTNYADSVKGRFTISRDNAKNTVYLQMNSLKPEDTAVYYCAAGRYAFGYFKYWGQGTQVTVSS . Its MRHA IC100 was 50

Consider now this further binder.
Entry under test: VHH antibody 1D7 (monomeric nanobody) (VHH) VHH: EVQLVESGGGLVQAGGSLTLSCAASERTFSYYVMAWFRQAPGKEREFVAGISMSGDSTKYADSVKGRFTISRDNAENTGYLQMNGLKPEDTAVYYCAADRDIRGNFRSWGRGTQVTVSS . Its MRHA IC100 was 100
